# System: A253 cell line;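 also: growth inhibition of A253 cells, read out with a cell viability assay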
# testSummary: cells
# Type: functional, cell-based, Homo sapiens
# measurementParameters: Homo sapiens, A253
# Description: SANGER: Inhibition of human A253 cell growth in a cell viability assay.
We begin with a simple list: items and their reported IC50.

Below, 3 molecules whose answers are already recorded.
| molecule | IC50 |
| --- | --- |
| CCC1=C[C@@H]2CN(C1)Cc1c([nH]c3ccccc13)[C@@](C(=O)OC)(c1cc3c(cc1OC)N(C)[C@H]1[C@@](O)(C(=O)OC)[C@H](OC(C)=O)[C@]4(CC)C=CCN5CC[C@]31[C@@H]54)C2 [VINORELBINE] | 1.22 nM |
| C[C@]1(O)C[C@@H](c2nc(-c3ccc4ccc(-c5ccccc5)nc4c3)c3c(N)nccn32)C1 [LINSITINIB] | > 2560 nM |
| CCc1nc(N)nc(N)c1-c1ccc(Cl)cc1 [PYRIMETHAMINE] | > 20000 nM |

Now look at this one.
Enquiry: Give the measured IC50 of CO[C@H]1C[C@@H]2CC[C@@H](C)[C@@](O)(O2)C(=O)C(=O)N2CCCC[C@H]2C(=O)O[C@H]([C@H](C)C[C@@H]2CC[C@@H](O)[C@H](OC)C2)CC(=O)[C@H](C)/C=C(\C)[C@@H](O)[C@@H](OC)C(=O)[C@H](C)C[C@H](C)/C=C/C=C/C=C/1C [SIROLIMUS] .
Return: > 100 nM

###

# Test system: GB-1;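 also: growth of GB-1 cells judged by a viability assay, IC50 marks the concentration inhibiting growth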
# testSummary: cells
# Type: functional, cell-based, Homo sapiens
# measurementParameters: gb-1
# Description: SANGER: Inhibition of human GB-1 cell growth in a cell viability assay.
measurementName: IC50

Enquiry: Give the measured IC50 of `Cc1cc([C@@H](C)Nc2ccccc2C(=O)O)c2nc(N3CCOCC3)cc(=O)n2c1` .
Return: > 5.12 µM

###

# Test system: TE-441-T
# testSummary: cells
# Assay type: functional, cell-based
# measurementParameters: Homo sapiens
# Description: SANGER: Inhibition of human TE-441-T cell growth in a cell viability assay.
pIC50: −log10 of the molar value.
We begin with a simple list: items and their reported pIC50.

Below, 3 compounds whose answers are already recorded.
| chemSmiles | pIC50 |
| --- | --- |
| CC1=C2C[C@H]3[C@@H](CC=C4C[C@@H](O)CC[C@@]43C)[C@@H]2CC[C@]12O[C@@H]1C[C@H](C)CN[C@H]1[C@H]2C | < 4.80 |
| COC(=O)CNC(=O)C(=O)OC | 2.73 |
| Cc1cc([C@@H](C)Nc2ccccc2C(=O)O)c2nc(N3CCOCC3)cc(=O)n2c1 | < 5.29 |

Enquiry: Give the measured pIC50 of `CO[C@H]1C[C@@H]2CC[C@@H](C)[C@@](O)(O2)C(=O)C(=O)N2CCCC[C@H]2C(=O)O[C@H]([C@H](C)C[C@@H]2CC[C@@H](O)[C@H](OC)C2)CC(=O)[C@H](C)/C=C(\C)[C@@H](O)[C@@H](OC)C(=O)[C@H](C)C[C@H](C)/C=C/C=C/C=C/1C` .
Return: < 7.00

Enquiry: Give the measured pIC50 of `Cc1ccc(Nc2nccc(N(C)c3ccc4c(C)n(C)nc4c3)n2)cc1S(N)(=O)=O` .
Return: < 5.10

Enquiry: Give the measured pIC50 of `CNC(=O)c1cc(Oc2ccc(NC(=O)Nc3ccc(Cl)c(C(F)(F)F)c3)cc2)ccn1` .
Return: < 5.40

Enquiry: Give the measured pIC50 of `CCC1=C[C@@H]2CN(C1)Cc1c([nH]c3ccccc13)[C@@](C(=O)OC)(c1cc3c(cc1OC)N(C)[C@H]1[C@@](O)(C(=O)OC)[C@H](OC(C)=O)[C@]4(CC)C=CCN5CC[C@]31[C@@H]54)C2` .
Return: 7.46

###

# Test system: U-698-M
# testSummary: cells
# Format: functional, cell-based
# measurementParameters: Homo sapiens
# Description: SANGER: Inhibition of human U-698-M cell growth in a cell viability assay.
pIC50: −log10 of the molar value.
measurementName: pIC50

Below, 3 compounds whose answers are already recorded.
| compound | assayTarget | valueMeasured |
| --- | --- | --- |
| Cn1cncc1[C@@](N)(c1ccc(Cl)cc1)c1ccc2c(c1)c(-c1cccc(Cl)c1)cc(=O)n2C | U-698-M | 5.40 |
| Cc1cnc(-c2cnc(NCCNc3ccc(C#N)cn3)nc2-c2ccc(Cl)cc2Cl)[nH]1 | U-698-M | < 5.59 |
| CCc1nc(N)nc(N)c1-c1ccc(Cl)cc1 | U-698-M | < 4.70 |

Enquiry: Give the measured pIC50 of `C=CCc1cccc(/C=N/NC(=O)CN2CCN(Cc3ccccc3)CC2)c1O` .
Return: < 5.59

Enquiry: Give the measured pIC50 of `CN(c1ncccc1CNc1nc(Nc2ccc3c(c2)CC(=O)N3)ncc1C(F)(F)F)S(C)(=O)=O` .
Return: < 5.59

Enquiry: Give the measured pIC50 of O=C(/C=C/c1ccccc1)NC(NC(=S)Nc1cccc2cccnc12)C(Cl)(Cl)Cl (stereo unspecified) .
Return: < 4.80

###

We begin with a simple list: items and their reported pIC50.
# System: SK-MEL3
# testSummary: cells
# Assay type: functional, cell-based, Homo sapiens, SK-MEL-3
# measurementParameters: Homo sapiens, SK-MEL3
# Description: SANGER: Inhibition of human SK-MEL-3 cell growth in a cell viability assay.
Field pIC50 (float): negative decimal logarithm of the concentration in molar.

| molecule | assayTarget | pIC50 |
| --- | --- | --- |
| COc1ccc(-c2ccc3c(N4CCOC[C@@H]4C)nc(N4CCOC[C@@H]4C)nc3n2)cc1CO [AZD-8055] | SK-MEL3 | 5.90 |
| CCC1=C[C@@H]2CN(C1)Cc1c([nH]c3ccccc13)[C@@](C(=O)OC)(c1cc3c(cc1OC)N(C)[C@H]1[C@@](O)(C(=O)OC)[C@H](OC(C)=O)[C@]4(CC)C=CCN5CC[C@]31[C@@H]54)C2 [VINORELBINE] | SK-MEL3 | 7.76 |
| Cn1cncc1[C@@](N)(c1ccc(Cl)cc1)c1ccc2c(c1)c(-c1cccc(Cl)c1)cc(=O)n2C [TIPIFARNIB] | SK-MEL3 | 5.30 |

Now look at this one.
Enquiry: Give the measured pIC50 of C[C@]1(O)C[C@@H](c2nc(-c3ccc4ccc(-c5ccccc5)nc4c3)c3c(N)nccn32)C1 [LINSITINIB] .
Return: 5.83

###

# System: JVM-2;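 also: growth inhibition of JVM-2 cells determined by a cell viability assay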
# testSummary: cells
# Format: functional, cell-based
# measurementParameters: Homo sapiens
# Description: SANGER: Inhibition of human JVM-2 cell growth in a cell viability assay.
measurementName: IC50

Below, 2 compounds whose answers are already recorded.
| chemSmiles | measurementName | valueMeasured |
| --- | --- | --- |
| COC(=O)CNC(=O)C(=O)OC | IC50 | > 4000 µM |
| CO[C@H]1C[C@@H]2CC[C@@H](C)[C@@](O)(O2)C(=O)C(=O)N2CCCC[C@H]2C(=O)O[C@H]([C@H](C)C[C@@H]2CC[C@@H](O)[C@H](OC)C2)CC(=O)[C@H](C)/C=C(\C)[C@@H](O)[C@@H](OC)C(=O)[C@H](C)C[C@H](C)/C=C/C=C/C=C/1C | IC50 | > 0.1 µM |

Now look at this one.
Enquiry: Give the measured IC50 of `CN(C)C/C=C/C(=O)Nc1cc2c(Nc3ccc(F)c(Cl)c3)ncnc2cc1O[C@H]1CCOC1` .
Return: > 0.5 µM

###

# Test system: CAL-85-1
# testSummary: cells
# Format: functional, cell-based
# measurementParameters: Homo sapiens
# Description: SANGER: Inhibition of human CAL-85-1 cell growth in a cell viability assay.
We begin with a simple list: items and their reported pIC50.
Field pIC50 (float): negative decimal logarithm of the concentration in molar.

| compound | pIC50 |
| --- | --- |
| COc1cc([C@@H]2c3cc4c(cc3[C@@H](O[C@@H]3O[C@@H]5CO[C@@H](C)O[C@H]5[C@H](O)[C@H]3O)[C@H]3COC(=O)[C@H]23)OCO4)cc(OC)c1O [ETOPOSIDE] | 5.67 |

Enquiry: Give the measured pIC50 of Cn1cncc1[C@@](N)(c1ccc(Cl)cc1)c1ccc2c(c1)c(-c1cccc(Cl)c1)cc(=O)n2C [TIPIFARNIB] .
Return: 5.90

###

# System: FaDu;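 also: cell viability readout of growth inhibition in FaDu cells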
# testSummary: cells
# Assay type: functional, cell-based, Homo sapiens
# measurementParameters: Homo sapiens, FaDu
# Description: SANGER: Inhibition of human FADU cell growth in a cell viability assay.
measurementName: pIC50
Field pIC50 (float): negative decimal logarithm of the concentration in molar.

Below, 2 compounds whose answers are already recorded.
| chemSmiles | measurementName | valueMeasured |
| --- | --- | --- |
| Cn1cncc1[C@@](N)(c1ccc(Cl)cc1)c1ccc2c(c1)c(-c1cccc(Cl)c1)cc(=O)n2C | pIC50 | 5.08 |
| CCC1=C[C@@H]2CN(C1)Cc1c([nH]c3ccccc13)[C@@](C(=O)OC)(c1cc3c(cc1OC)N(C)[C@H]1[C@@](O)(C(=O)OC)[C@H](OC(C)=O)[C@]4(CC)C=CCN5CC[C@]31[C@@H]54)C2 | pIC50 | 7.31 |

Enquiry: Give the measured pIC50 of `CC(=O)O[C@@]12CO[C@@H]1C[C@H](O)[C@@]1(C)C(=O)[C@H](O)C3=C(C)[C@@H](OC(=O)[C@H](O)[C@@H](NC(=O)OC(C)(C)C)c4ccccc4)C[C@@](O)([C@@H](OC(=O)c4ccccc4)[C@H]21)C3(C)C` .
Return: 8.29
